Target entity: T1, human CD112R antigen protein huCD112R-His (Acro Biosysterm, PVG-H52H4) (human, UniProt Q6DKI7 41-171)
T1 construct: purchased; also called human antigen protein; not shown: His tag
T1 sequence (looked up): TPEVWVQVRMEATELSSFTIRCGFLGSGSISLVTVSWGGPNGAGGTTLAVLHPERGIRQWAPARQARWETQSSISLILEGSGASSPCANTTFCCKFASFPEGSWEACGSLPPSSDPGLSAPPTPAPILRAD
Test method notes: ELISA, huCD112R-His coated on plate
Quantity: pEC50
By convention, pEC50 is the negative base-10 log of a molar concentration.

Example binders with recorded pEC50:
C145 (antibody, human IgG1, kappa, V domains shown) VH: EVQLQQSGPEVVKPGASVRISCKASGNTFTDFFINWVKQSHGKSLEWIGDVNPDSNGANYNQKFKGKATLTVDKSSGTAFMGLRSLTSEDSAVYYCATLFFDNWGQGTTLTVSS VL: DIVMTQSPSSLNVSAGEKVTMSCKSSQSLLNSGNQKNYLAWYQQKPGQPPKLLIYGASTRESGVPDRFTGSGSGTDFILTISSVQAEDLALYYCQNAHSSPYTFGGGTKLEIKR ... 10.42
C105 (antibody, human IgG1, kappa, V domains shown) VH: EVQLQQSGPELVKPGSSMKISCKASGYTFTDYSMDWVKQSHGKSLEWIGAINPNNGGTSYNQKFKDKATLTVDRSSSTAYMELRSLTSEDSAVYYCARWDSDYWYFDVWATGTTVTVSS VL: DIVMTQSQKFMSTSVGDRVSITCKASQNVRTAVDWYQQKPGQSPKALIYSASNRHTGVPDRFTGSGSGTDFTLTISNVQSEDLADYFCLQHWNYPYTFGGGTKLEIKR ... 10.68

// moving on: another record for pEC50
For record C56-2 (antibody, human IgG1, kappa, V domains shown) VH: EVQLVESGGGLVKPGGSLKLSCAASGFTFSDYALSWVRQTPEKRLEWVATIRDGGSYTYYSDNEKGRFTISRDNAKNNLYLQMSHLRSEDTAMYYCTRDQVNRGWFTYWGQGTLVTVSA VL: QVILTQSPAIMSASLGERVTMTCSASSSVSSSYFHWFQQKPGSSPKLWIYSTSNLASGVPPRFSGSGSGTSYSLTISSMEAEDAATYYCHQHHRSPLTFGAGTKLELKR the listed pEC50 is 10.49
